# Target or test system: RecQ-like DNA helicase BLM (Homo sapiens)
# Assay info: qHTS for Inhibitors of Bloom's syndrome helicase (BLM): Helicase ATPase Orthogonal Confirmatory Assay for SAR
# Conditions used: purified BLM helicase ATPase activity assay; series mostly up to 57.1 µM
Inconclusive results are not listed. Calls of active or inactive are those of the source. The call rests on the fitted dose curve; in most records, active means well fitted inhibition curve with a large enough effect; inconclusive means small, poorly fitted or top-dose-only effect; inactive means flat fitted curve, though single readings scatter.
Log the outcome using a class from class 1 = active, class 0 = inactive

- Smiles: "O=C(Nc1ccc(Cl)c(Cl)c1)Nc1nc(-c2ccncc2)cs1"
  Group label: "class 0"

I would be grateful if you could indicate the recorded call for O=C(Nc1nnc(-c2ccncc2)s1)Nc1ccc(Cl)cc1F . class 0

Test call for this compound, please: O=C(Nc1ccc(Cl)c(Cl)c1)Nc1nnc(Br)s1 class 0

Which outcome did this test record for the compound N#Cc1cccc(NC(=O)Nc2nnc(-c3ccncc3)s2)c1 ? class 1

Hi, do you know how N#Cc1cc(NC(=O)Nc2nnc(-c3ccncc3)s2)ccc1Br came out in this test? class 1

* * *

# Target or test system: RecQ-like DNA helicase BLM (Homo sapiens)
# Assay info: qHTS for Inhibitors of Bloom's syndrome helicase (BLM): Helicase ATPase Orthogonal Confirmatory Assay for SAR
# Conditions used: purified BLM helicase ATPase activity assay; series mostly up to 57.1 µM
Records with an inconclusive call do not appear. Active and inactive are the calls of the source. Calls come from the whole dose curve; as a rule, active = well fitted inhibition curve with a large enough effect; inconclusive = small, poorly fitted or top-dose-only effect; inactive = flat fitted curve, though single readings scatter.
Reported endpoint: Potency

Worked set:
- Smiles: "O=C(Nc1ccc(Cl)c(Cl)c1)Nc1cccc(-c2ccncc2)n1"
  Potency: "inactive"
- Smiles: "O=C(Nc1nnc(-c2ccncc2)s1)Nc1cccc2ccccc12"
  Potency: "5.61 µM (active)"
- Smiles: "O=C(Nc1ccc(Cl)nc1)Nc1nnc(-c2ccncc2)s1"
  Potency: "1.62 µM (active)"
- Smiles: "O=C(Nc1ccc(Cl)c(Cl)c1)N1CCN(c2ccncc2)CC1"
  Potency: "inactive"
- Smiles: "O=C(Nc1ccc(F)c(C(F)(F)F)c1)Nc1nnc(-c2ccncc2)o1"
  Potency: "inactive"

Param item = Cc1cc(NC(=O)Nc2nnc(C3CCCCC3)s2)ccc1F ; retrieve measured Potency. inactive

Query: Potency; subject: O=C(Nc1cccc(C(=O)O)c1)Nc1nnc(-c2ccncc2)s1 inactive

Dear colleague, I am looking for the recorded Potency of the following compound: O=C(Nc1ccc(-n2cncn2)c(C(F)(F)F)c1)Nc1nnc(-c2ccncc2)s1 20.4 µM (active)

Recorded Potency of O=C(Nc1ccc(Cl)c(Cl)c1)Nc1nnc(-c2ccncc2)s1 , please. 6.46 µM (active)

Using the record for COc1ccc(OC)c(-c2nnc(NC(=O)Nc3ccc4ccccc4c3)s2)c1 , report its Potency. inactive

What does the record list as Potency for Nc1ccc(-c2nnc(NC(=O)Nc3ccc(Cl)c(Cl)c3)s2)cc1 ? inactive

# get_value(readout='Potency', item= COc1ccccc1CNC(=O)Nc1nnc(-c2ccncc2)s1 ) inactive

* * *

# Target or test system: RecQ-like DNA helicase BLM (Homo sapiens)
# Assay info: qHTS for Inhibitors of Bloom's syndrome helicase (BLM): Helicase ATPase Orthogonal Confirmatory Assay for SAR
# Conditions used: purified BLM helicase ATPase activity assay; series mostly up to 57.1 µM
Inconclusive results are not listed. Activity calls are given as the source filed them. Calls come from the whole dose curve; as a rule, active = well fitted inhibition curve with a large enough effect; inconclusive = small, poorly fitted or top-dose-only effect; inactive = flat fitted curve, though single readings scatter.
Reported endpoint: Potency

Here's what some known entries look like.
- Smiles: "O=C(Nc1ccc(F)c(C(F)(F)F)c1)Nc1nnc(-c2ccncc2)s1"
  Target or test system: "RecQ-like DNA helicase BLM (Homo sapiens)"
  Potency: "inactive"
- Smiles: "O=C(Nc1nnc(-c2ccncc2)s1)NC12CC3CC(CC(C3)C1)C2"
  Target or test system: "RecQ-like DNA helicase BLM (Homo sapiens)"
  Potency: "inactive"
- Smiles: "O=C(Nc1ccc(Cl)c(Cl)c1)Nc1nnc(-c2ccncc2)o1"
  Target or test system: "RecQ-like DNA helicase BLM (Homo sapiens)"
  Potency: "inactive"
- Smiles: "O=C(Nc1ccc(Cl)c(Cl)c1)Nc1ccnc(-c2ccncc2)n1"
  Target or test system: "RecQ-like DNA helicase BLM (Homo sapiens)"
  Potency: "inactive"
- Smiles: "O=C(Nc1ccc2ccccc2c1)Nc1nnc(-c2ccccc2)s1"
  Target or test system: "RecQ-like DNA helicase BLM (Homo sapiens)"
  Potency: "inactive"

As a next step, examine the compound that follows.
Report Potency for O=C(Nc1ccc(-c2ccccc2)cc1)Nc1nnc(-c2ccncc2)s1 tested on RecQ-like DNA helicase BLM (Homo sapiens). inactive

Just for reference, PubChem BioAssay AID720549 is where these values come from.
